experiment: Cmax in dog at 12.5 umol/kg, po; type: ADME, organism-based, Canis lupus familiaris; design: dose 12.5 umol/kg, route oral; details: in vivo
// F strictly below 10 µM in Cmax; T otherwise

[[record]]
smiles_structure = "Cc1nc(Oc2ccc(C(=O)O)cc2)ccc1CN1CCC(N2C(=O)N(C3CCOCC3)C[C@H]2c2ccccc2)CC1"
class_label = "T"

[[record]]
smiles_structure = "O=C(O)c1ccc(Sc2ccc(CN3CCC(N4C(=O)N(C5CCOCC5)C[C@H]4c4ccccc4)CC3)cn2)cc1"
class_label = "F"

[[record]]
smiles_structure = "Cc1nc(Oc2ccc(C(=O)O)cc2)ccc1CN1CCC(N2C(=O)N(C3CCOCC3)C[C@H]2c2cccc(Cl)c2)CC1"
class_label = "F"

[[record]]
smiles_structure = "Cc1nc(Oc2ccc(C(N)=O)cc2)ccc1CN1CCC(N2C(=O)N(C3CCOCC3)C[C@H]2c2ccccc2)CC1"
class_label = "T"

[[record]]
smiles_structure = "CCc1nc(Oc2ccc(C(=O)O)cc2)ccc1CN1CCC(N2C(=O)N(C3CCOCC3)C[C@H]2c2ccccc2)CC1"
class_label = "T"


The values you see were collected from ChEMBL document CHEMBL2434870.
